tested on: Artemia; test: Toxicity in brine shrimp; type: organism-based; conditions: in vivo
property_measured: LC50

Hello, please tell me recorded LC50 for this one: `C/C=C1/C(=O)O[C@]23C=C[C@@H]4C(C(=O)OC)=CO[C@H](O[C@@H]12)[C@@H]43`
1.7 ppm

Hello, please tell me recorded LC50 for this one: `COc1cc2ccc(=O)oc2cc1O`
55 ppm

Hello, please tell me recorded LC50 for this one: `C/C=C1\C(=O)O[C@]23C=C[C@@H]4C(C(=O)OC)=CO[C@H](O[C@@H]12)[C@@H]43`
1.7 ppm

Hello, please tell me recorded LC50 for this one: `C/C=C1/C(=O)O[C@@]23C=C[C@H]4[C@@H](C(=O)OC)[C@H](O)O[C@@H](O[C@H]12)[C@H]43`
21.3 ppm

Hello, please tell me recorded LC50 for this one: `COc1cc([C@H]2OC[C@H]3[C@@H]2CO[C@H]3c2ccc(O)c(OC)c2)ccc1O`
377 ppm

Hello, please tell me recorded LC50 for this one: `C/C=C1/C(=O)O[C@@]23C=C[C@H]4C[C@H](O)O[C@@H](O[C@H]12)[C@H]43`
> 1000 ppm

Hello, please tell me recorded LC50 for this one: `COc1cc2ccc(=O)oc2cc1OC`
349 ppm

* * *

Listed here are compounds together with their documented EC50.
test: Cytotoxicity against human 9KB cells; format: functional; settings: read-out: ED50 (the source's name)
Record the result as number plus unit.

Reference set, count: 5
C/C=C1\C(=O)O[C@]23C=C[C@@H]4C(C(=O)OC)=CO[C@H](O[C@@H]12)[C@@H]43 : 2.7 µg/mL
COc1cc2ccc(=O)oc2cc1O : 16 µg/mL
COc1cc2ccc(=O)oc2cc1OC : 61 µg/mL
COc1cc([C@H]2OC[C@H]3[C@@H]2CO[C@H]3c2ccc(O)c(OC)c2)ccc1O : 100 µg/mL
C/C=C1/C(=O)O[C@@]23C=C[C@H]4[C@@H](C(=O)OC)[C@H](O)O[C@@H](O[C@H]12)[C@H]43 : 2.1 µg/mL

Consider the record given below.
Hello, please tell me recorded EC50 for this one: `C/C=C1/C(=O)O[C@]23C=C[C@@H]4C(C(=O)OC)=CO[C@H](O[C@@H]12)[C@@H]43`
2.6 µg/mL

Attribution: ChEMBL document CHEMBL1150751
